tested-system: anti-H3K9me3 antibody ab8898
test-summary: peptide microarray binding signal (635 nm), min-max normalized on array (fraction of array maximum); higher = stronger binding
experimental-context: peptide region: Unmod H1 variant; binder concentration: 1:10,000 dilution
attribute-measured: peptide microarray binding signal
One number for each entry.

Provide the reported peptide microarray binding signal of each entry below, same order.
1. KAASGEAKPKAKK [Unmod H1 variant K A A S G E A K P K A K K]
2. AKPKRAKASKKST [Unmod H1 variant A K P K R A K A S K K S T]
3. KTVKPKKVAKSPA [Unmod H1 variant K T V K P K K V A K S P A]
4. KAKPVKASKPKKA [Unmod H1 variant K A K P V K A S K P K K A]

0.00121
0.000634
0.000461
0.000692

Consider the following items and state reported peptide microarray binding signal for each.
1. ERGGVSLAALKKA [Unmod H1 variant E R G G V S L A A L K K A]
2. AKKPAGAAKKPKK [Unmod H1 variant A K K P A G A A K K P K K]
3. ALAAAGYDVEKNN [Unmod H1 variant A L A A A G Y D V E K N N]
4. KAASKAPTKKPKA [Unmod H1 variant K A A S K A P T K K P K A]
5. IKLGIKSLVSKGT [Unmod H1 variant I K L G I K S L V S K G T]
6. RLVTTGVLKQTKG [Unmod H1 variant R L V T T G V L K Q T K G]

1. 0.00283
2. 0.00104
3. 0.00357
4. 0.000807
5. 0.00144
6. 0.0019

Count: 4. Required value per item: peptide microarray binding signal.
1. KAKKAGAAKAKKP [Unmod H1 variant K A K K A G A A K A K K P]
2. EKNNSRIKLGLKS [Unmod H1 variant E K N N S R I K L G L K S]
3. VKKKARKSAGAAK [Unmod H1 variant V K K K A R K S A G A A K]
4. PPVSELITKAVAA [Unmod H1 variant P P V S E L I T K A V A A]

0.00075
0.00098
0.000634
0.00144

Take each entry in turn and give its peptide microarray binding signal.
1. GVSLAALKKALAA [Unmod H1 variant G V S L A A L K K A L A A]
2. TPKKSAKKTPKKA [Unmod H1 variant T P K K S A K K T P K K A]

0.00161
0.000865
